Kindly supply the reported Percent cross reactivity, Access values for the records listed here.
System: Beckmann Access (commercial cortisol immunoassay)
Experiment: Synthetic glucocorticoid cross reactivity in Beckman Access cortisol immunoassay
Type: binding
Settings: determined by 2000 ng/mL sample
A number alone suffices; assume %.

Fill in Percent cross reactivity, Access for record C[C@]12C=CC(=O)C=C1CC[C@@H]1[C@@H]2C(=O)C[C@@]2(C)[C@H]1CC[C@]2(O)C(=O)CO [SYN-2, Prednisone]
3

Recall and state the measured Percent cross reactivity, Access for C[C@]12C=CC(=O)C=C1CC[C@@H]1[C@@H]2[C@@H](O)C[C@@]2(C)[C@H]1CC[C@]2(O)C(=O)CO [SYN-7, Prednisolone] .
21

Identify measured Percent cross reactivity, Access corresponding to C[C@H]1C[C@@H]2[C@H]([C@@H](O)C[C@@]3(C)[C@H]2CC[C@]3(O)C(=O)CO)[C@@]2(C)C=CC(=O)C=C12 [SYN-1, 6-a-methyl prednisolone]
2

Output Percent cross reactivity, Access of C[C@]12CCC(=O)C=C1CC[C@@H]1[C@@H]2C(=O)C[C@@]2(C)[C@H]1CC[C@]2(O)C(=O)CO [SYN-6, Cortisone]
5

Assign Percent cross reactivity, Access to the following record: CC(=O)[C@@]1(O)CC[C@H]2[C@@H]3C[C@H](C)C4=CC(=O)C=C[C@]4(C)[C@@]3(F)[C@@H](O)C[C@@]21C [SYN-8, Fluorometholone]
0

Specify measured Percent cross reactivity, Access for C[C@]12C=CC(=O)C=C1CC[C@H]1[C@@H]3C[C@@H](O)[C@](O)(C(=O)CO)[C@@]3(C)C[C@H](O)[C@@]12F [SYN-4, Triamcinolone] .
0

Sourced from patent US20110136259A1
